target.entity: T1, PUF4 RNA-binding domain (Saccharomyces cerevisiae, UniProt P25339 537-888)
T1 sequence: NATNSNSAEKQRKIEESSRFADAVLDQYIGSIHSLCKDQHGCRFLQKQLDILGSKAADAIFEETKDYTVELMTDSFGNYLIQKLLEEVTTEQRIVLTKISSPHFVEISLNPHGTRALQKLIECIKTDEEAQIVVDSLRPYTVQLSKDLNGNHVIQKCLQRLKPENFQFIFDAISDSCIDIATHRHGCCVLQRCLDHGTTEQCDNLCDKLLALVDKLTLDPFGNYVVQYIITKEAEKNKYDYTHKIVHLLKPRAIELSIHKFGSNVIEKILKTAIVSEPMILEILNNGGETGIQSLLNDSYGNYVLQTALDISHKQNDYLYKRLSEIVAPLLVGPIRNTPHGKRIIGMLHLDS
method: Mg; RNA-MaP; 20 mM Na-HEPES pH 7.4, 30 mM KOAc, 0.75 mM MgCl2, 0.1% Tween-20, 5% glycerol, 0.1 mg/mL BSA, 2 mM DTT; 25 C; 0.0125-409.6 nM protein
reported.conditions: tags: N-His6-TEV cleaved; C-SNAP kept, Cy3B-labelled; label: tethered on chip by stalled RNA polymerase
Reported pKd values for the following binders.
Scale explanation: pKd corresponds to minus log10 of a concentration expressed in moles per litre.

# annotated cases, reported pKd shown
*Q* Look up pKd for this binder: Ie_S2_P5E.1_K5.1_C5.1_H5.1_[+2CCTC]_A5.1_F5.1_T5.1 (ssRNA) RNA: UUUGAUUAAUAUGAUAUCGUUCUUUCUUGCCUCUAUUAUUAUUCUUUCUCGAUAUCAUAUUAAUCUUU
*A* 5.96

*Q* Look at this binder and give its reported pKd. UCUCUUUGUAUCUCGCUCUCUU (ssRNA) [Ic_S1_P5E.1_K5.1_C5.1_H5.1_A5.1_[T6C]_[A7T]_F5.1_[T8C]_[T9G]_[A10C]_T5.1]
*A* 6.80

Now for the binder whose pKd we want.
*Q* I'd like to know its pKd. The binder in question is Id_ii_S2_P4E.3_K4.2_C4.2_[C-2T]_H4.2_A4.1_F4.1_T4.2_[G10T]_[T11A] (ssRNA) RNA: UUUGAUUAAUAUGAUAUCGUUCUUUCUUUUAUAUAUUAUAUUCUUUCUCGAUAUCAUAUUAAUCUUU
*A* 7.62

All values here come from paper PMC9352680.
